Tested on: RXF 631
Experiment Notes: NCI tumour cell line growth inhibition, 48 h
The source made the active and inactive calls. No stated cut-off is given here; in the data, active = GI50 up to about 1.1 µM and inactive = higher.
Items are presented alongside their recorded GI50.
Measured Parameter: GI50

INSERT INTO measurements (molecule, observed_result) VALUES
  ('O/N=C(\c1nc2ccc(Cl)cc2nc1O)C(O)c1ccc(Cl)cc1Cl (stereo not drawn)', '> 100 µM (inactive)'),
  ('CC(=O)OC1COC(N2C(=O)C(=O)c3cc(Br)c([N+](=O)[O-])cc32)C(OC(C)=O)C1OC(C)=O (stereo not drawn)', '48.5 µM (inactive)'),
  ('O=C1C2C(C(=O)N1OS(=O)(=O)c1ccccc1)N(Cc1ccccc1)C(=O)N2Cc1ccccc1 (stereo not drawn)', '> 100 µM (inactive)'),
  ('N#CC(/C(=N\NC(N)=S)C(=O)NC1C2CC3CC(C2)CC1C3)c1ccc(Cl)cc1 (stereo not drawn)', '> 100 µM (inactive)'),
  ('O=S1(=O)OCCOS(=O)(=O)C1I', '> 100 µM (inactive)'),
  ('C[C@H]1NC(=O)C2CCCCN2C(=O)CN(C)C(=O)CNC(=O)C2CCCCN2C(=O)[C@@H](NC(=O)c2nc3ccccc3cc2O)[C@@H](C)NC(=O)C2CCCCN2C(=O)CN(C)C(=O)CNC(=O)[C@@H]2CCCCN2C(=O)C1NC(=O)c1nc2ccccc2cc1O (stereo partly drawn)', '0.164 µM (active)'),
  ('COc1ccc(O)c2c(=O)ccccc12', '> 100 µM (inactive)'),
  ('COC(=O)C1CC(OC(C)=O)C=C2C(=O)CCC21 (stereo not drawn)', '27.5 µM (inactive)');

* * *

Test system: HL-60
Experiment Notes: NCI tumour cell line growth inhibition, 48 h
Activity calls are given as the source filed them. Cut-off read from the data, not from the text of the source: active = GI50 up to about 1.1 µM and inactive = higher.
Measured Parameter: GI50

INSERT INTO assay_data (compound, observed_result) VALUES
  ('C/C(=N\NC(N)=S)c1cccs1.OB(O)c1ccccc1', '> 100 µM (inactive)'),
  ('Cc1cccc(/C(Br)=C2/OC(=O)c3ccccc32)c1', '> 10 µM (inactive)'),
  ('COc1ccc(C2SC(=N)Nc3c2c(C)nn3C(=O)c2ccncc2)cc1 (stereo not drawn)', '87.1 µM (inactive)'),
  ('C[C@H](CSC(=O)c1ccccc1)C(=O)N1c2ccccc2C[C@H]1C(=O)O', '33.7 µM (inactive)'),
  ('COc1cc(-c2oc3c(OC)c(O)c(OC)c(O)c3c(=O)c2OC)cc(OC)c1OC', '41 µM (inactive)'),
  ('CC(=O)OCC(OC(C)=O)C(OC(C)=O)C(OC(C)=O)C(/C=N\Nc1nc2ccccc2c(=O)[nH]1)=N/Nc1nc2ccccc2c(=O)[nH]1 (stereo not drawn)', '> 100 µM (inactive)'),
  ('Nc1nc(Nc2ccccc2)sc1C(=O)c1cccs1', '3.57 µM (inactive)'),
  ('CC(C)OP(=O)(OC(C)C)/C(Cl)=N/Nc1ccc([N+](=O)[O-])cc1', '43.7 µM (inactive)');

* * *

System: NCI-H460
Experiment Notes: NCI tumour cell line growth inhibition, 48 h
Calls of active or inactive are those of the source. Rule as the data show it: active = GI50 up to about 1.1 µM and inactive = higher.
Items are presented alongside their recorded GI50.
Measured Parameter: GI50

INSERT INTO measurements (compound, target_system, observed_result) VALUES
  ('COc1cc(C2C(C(=O)Nc3cc(F)c(F)cc3F)=C(C)NC(C)=C2C(=O)Nc2cc(F)c(F)cc2F)ccc1O', 'NCI-H460', '27.3 µM (inactive)'),
  ('CCOP(=O)(OCC)/C(C#N)=C/c1cccn1Cc1ccccc1', 'NCI-H460', '31.9 µM (inactive)'),
  ('Cc1ccc(-c2c(C#N)c(-c3ccc(Cl)cc3)c(C#N)c(=O)n2NS(=O)(=O)c2ccc(C)cc2)cc1', 'NCI-H460', '27.4 µM (inactive)'),
  ('CC1(C)C=Cc2c(cc(O)c3c(=O)c4cc(Cl)ccc4[nH]c23)O1', 'NCI-H460', '1.98 µM (inactive)'),
  ('N#CSCC1COc2ccccc2O1 (centres undefined)', 'NCI-H460', '> 10 µM (inactive)'),
  ('Cc1nnc2sc(N/N=C/c3ccccc3)nn12', 'NCI-H460', '> 100 µM (inactive)'),
  ('N#Cc1c(N2CCOCC2)ncn(-c2ccccc2)c1=O', 'NCI-H460', '> 100 µM (inactive)'),
  ('CCCN(CCC)C1CC(n2cc(C)c(=O)[nH]c2=O)OC1CO (centres undefined)', 'NCI-H460', '> 100 µM (inactive)'),
  ('C(=C/c1nnnn1-c1ccccc1)/Nc1ccccc1', 'NCI-H460', '49.8 µM (inactive)');

* * *

System: EKVX
Experiment Notes: NCI tumour cell line growth inhibition, 48 h
Calls of active or inactive are those of the source. Rule as the data show it: active = GI50 up to about 1.1 µM and inactive = higher.
Measured Parameter: GI50

INSERT INTO measurements (compound, observed_result) VALUES
  ('OC1CCN(c2c3ccccc3nc3ccccc23)CC1', '55.2 µM (inactive)'),
  ('N#CSCC1COc2ccccc2O1 (stereo not given)', '> 10 µM (inactive)'),
  ('C=C(Cl)C(Cl)(CBr)CCC(Cl)C(C)(C)Cl (stereo not given)', '8.38 µM (inactive)'),
  ('C/C=C\C(CC(=O)NCCC1CN(C(=O)c2ccccc2)c2ccccc21)CC(=O)OC (stereo not given)', '> 100 µM (inactive)'),
  ('COC(=O)C(=O)C1(CCC(C)=O)c2ccccc2-c2ccccc21', '> 100 µM (inactive)');

* * *

Tested on: 786-0
Experiment Notes: NCI tumour cell line growth inhibition, 48 h
Activity calls are given as the source filed them. No stated cut-off is given here; in the data, active = GI50 up to about 1.1 µM and inactive = higher.
Measured Parameter: GI50

INSERT INTO assay_data (molecule, observed_result) VALUES
  ('CCCC(=O)OC[n+]1ccc2c(C)c3[nH]c4ccc(OC)cc4c3c(C)c2c1', '95.3 nM (active)'),
  ('CCOC(=O)C1(Cc2ccccc2)CCN(C(=O)c2ccccc2)C2C1C2(Cl)Cl (stereo not drawn)', '20100 nM (inactive)'),
  ('Clc1ncc(C(Cl)(Cl)Cl)nc1-c1ccccc1', '1950 nM (inactive)');

* * *

Tested on: SW-620
Experiment Notes: NCI tumour cell line growth inhibition, 48 h
Activity calls are given as the source filed them. No stated cut-off is given here; in the data, active = GI50 up to about 1.1 µM and inactive = higher.
Items are presented alongside their recorded GI50.
Measured Parameter: GI50

INSERT INTO measurements (molecule, target_system, measured_parameter, observed_result) VALUES
  ('CC1C(c2ccccc2)OP(=O)(OC(C#N)c2ccccc2)N1C (configuration not stated)', 'SW-620', 'GI50', '97.9 µM (inactive)'),
  ('O=c1c(Cc2cccc(Cc3c(O)oc4ccccc4c3=O)c2)c(O)oc2ccccc12', 'SW-620', 'GI50', '> 100 µM (inactive)'),
  ('OCC(O)C(O)C(O)c1nn(-c2ccc(Cl)cc2)c2nc3cc(Cl)c(Cl)cc3nc12 (configuration not stated)', 'SW-620', 'GI50', '> 100 µM (inactive)'),
  ('CCCCCC/C=C\CCCCCCCCC(=O)c1cccc(OC)c1OC', 'SW-620', 'GI50', '> 100 µM (inactive)'),
  ('Clc1cc2nc[nH]c2cc1Cl', 'SW-620', 'GI50', '> 100 µM (inactive)'),
  ('c1ccc(C2=NN(c3nc4ccccc4s3)C3(CCCCC3)N2)nc1', 'SW-620', 'GI50', '30.7 µM (inactive)'),
  ('CCCCC/C(=N\c1[nH]cnc1C(N)=O)OCC', 'SW-620', 'GI50', '> 100 µM (inactive)'),
  ('COc1cc2c(cc1OC)C1c3ccccc3CCN1CC2 (configuration not stated)', 'SW-620', 'GI50', '63.2 µM (inactive)'),
  ('O=C(O)CCSC(=O)Nc1ccccc1', 'SW-620', 'GI50', '92.9 µM (inactive)'),
  ('CC(C)(C)OC(=O)NCCCCCCC(=O)Cc1ccccc1', 'SW-620', 'GI50', '> 100 µM (inactive)'),
  ('CN(CCO)CCC1COc2ccccc2O1 (configuration not stated)', 'SW-620', 'GI50', '> 10 µM (inactive)'),
  ('c1ccc(CN2COc3c(ccc4c5c(ccc34)CN(Cc3ccccc3)CO5)C2)cc1', 'SW-620', 'GI50', '> 100 µM (inactive)');

* * *

Test system: BT-549
Experiment Notes: NCI tumour cell line growth inhibition, 48 h
The source made the active and inactive calls. No stated cut-off is given here; in the data, active = GI50 up to about 1.1 µM and inactive = higher.
Measured Parameter: GI50

INSERT INTO measurements (compound, observed_result) VALUES
  ('O=C1c2ccc3c4ccc5c6c(ccc(c7ccc(c2c37)C(=O)N1CCN1CCCCC1)c64)C(=O)N(CCN1CCCCC1)C5=O', '> 100 µM (inactive)'),
  ('COC(=O)Cc1c(C(=O)CC(C)(C)n2cnc(CCN3C(=O)CCC3=O)c2)[nH]c2ccccc12', '> 100 µM (inactive)'),
  ('COc1cccc2c(Nc3ccc(S(=O)(=O)NC(C)=O)cc3)c3ccc([N+](=O)[O-])cc3nc12', '26.3 µM (inactive)'),
  ('CCN(CC)C1C(=O)NC1C#Cc1ccccc1 (centres undefined)', '61.9 µM (inactive)'),
  ('Nc1n[n+]([O-])c2cc([N+](=O)[O-])ccc2[n+]1[O-]', '18.1 µM (inactive)'),
  ('c1ccc(CC(Nc2cccnc2)c2ccccc2)cc1 (centres undefined)', '25.2 µM (inactive)'),
  ('CC(=O)Oc1ccn2nc(C)c(Br)c2c1', '> 100 µM (inactive)'),
  ('COc1ccc2c(c1)CN1C(=N2)CSC1c1ccccc1Cl (centres undefined)', '25.2 µM (inactive)'),
  ('CCCCCCCC/C=C\CCCCCCCCNc1ccn(C2OC(COP(=O)(O)OC3CC(n4cc(F)c(=O)[nH]c4=O)OC3CO)C(O)C2O)c(=O)n1 (centres undefined)', '20.9 µM (inactive)'),
  ('COc1ccc(/C=N/n2c(-c3ccccc3)n[nH]c2=O)cc1', '> 100 µM (inactive)'),
  ('CC(=O)OCC(OC(C)=O)C(OC(C)=O)C(OC(C)=O)C(/C=N\Nc1nc2ccccc2c(=O)[nH]1)=N/Nc1nc2ccccc2c(=O)[nH]1 (centres undefined)', '> 100 µM (inactive)'),
  ('CC(NNC(=O)c1cc[n+]([BH2-]C#N)cc1)c1ccc(F)cc1 (centres undefined)', '> 100 µM (inactive)'),
  ('COc1cc(-c2oc3c(OC)c(O)c(OC)c(O)c3c(=O)c2OC)cc(OC)c1OC', '71.8 µM (inactive)'),
  ('Cc1nc2c(Cl)cc(Cl)cc2c(Cl)c1CCCl', '51.1 µM (inactive)'),
  ('NC(CCC(=O)NC(CSC(=O)N(O)c1ccc(Br)cc1)C(=O)NCC(=O)O)C(=O)O (centres undefined)', '> 50 µM (inactive)'),
  ('COc1ccc(N2C(=O)C3c4[nH]c5ccc(OCc6ccccc6)cc5c4C4CCC(C(C)(C)C)CC4C3C2=O)cc1 (centres undefined)', '> 100 µM (inactive)'),
  ('CC(C)(C)c1cc(C(C)(C)C)c(SC2OC(CO)C(O)C(O)C2O)c(O)c1O (centres undefined)', '10.6 µM (inactive)'),
  ('CCOC(=O)CCC(C(=O)OCC)n1nc2ccc(Nc3c(C)[n+]([O-])c4ccc(Cl)cc4[n+]3[O-])cc2n1 (centres undefined)', '28.1 µM (inactive)'),
  ('O=c1c(Cc2cccc(Cc3c(O)oc4ccccc4c3=O)c2)c(O)oc2ccccc12', '> 100 µM (inactive)'),
  ('Clc1ccc(-c2cc3nc4ccccc4nc3o2)cc1', '35 µM (inactive)'),
  ('CNc1ncnc2c1cnn2Cc1cn(CCCCO)nn1', '> 100 µM (inactive)'),
  ('CC(=O)OC(C(=O)NNC(=O)OC(C)(C)C)c1ccccc1 (centres undefined)', '> 100 µM (inactive)'),
  ('Oc1ccc(/N=N/c2ccc(Cl)cc2)cc1', '15.1 µM (inactive)'),
  ('CC(=O)Oc1ccc2c3c1[C@@H]1O[C@@H]1c1cccc(c1-3)[C@@H]1O[C@H]21', '1.87 µM (inactive)'),
  ('CC[C@@H](O)C[C@H]1CCC[C@@]2(C[C@@H]3OC(=O)/C=C/[C@@](C)(O)[C@@H](O)[C@H](C)[C@@H](O)[C@H](OC4CCC(N(C)C)C(C)O4)[C@@H](O)[C@](C)(O)CCCCC/C=C/[C@@H]4CC(C)(C)O[C@@]4(O)C[C@H](O2)[C@H]3C)O1 (some centres undefined)', '12.6 µM (inactive)'),
  ('CN(C)CCNC(=O)c1cc([N+](=O)[O-])ccn1', '84.5 µM (inactive)'),
  ('C/C(=C\c1ccc(Cl)cc1)C(C)(C)C(=O)O', '> 100 µM (inactive)'),
  ('Cc1ccc(S(=O)(=O)NC(=O)NC(Cc2ccccc2)C(=O)O)cc1 (centres undefined)', '> 100 µM (inactive)'),
  ('CC(=O)O/C(=C(/C#N)C(=O)O)C1C(C(=O)O)C(c2ccccc2[N+](=O)[O-])C=C(c2ccco2)N1c1ccncc1 (centres undefined)', '6.04 µM (inactive)');
